test system: Human papillomavirus type 1a E7 protein (residues 1-88); assay: HPV1a E7 small-molecule binders, primary screen, biochemical, small-molecule microarray, residues 1-88, 635 nm (AID 1129); details: small-molecule microarray binding, fluorescence 635 nm; higher = more signal
Observed property: composite z-score
Answer with a number only.

1. C=CC[C@]1(C(=O)N2CCCCC2)N=C(c2ccc(OCCCO)cc2)O[C@H]1c1ccccc1N=[N+]=[N-] = 1.26

Query block: Return reported composite z-score; argument: CCCC=C(CCC)[C@@H](NC(=O)c1ccccc1)c1ccccc1
Result block: 0.3

Query block: Ok, now C[C@H]1COC(=O)[C@@H]2CCCN2C(=O)[C@@H](C)COC(=O)[C@@H]2CCCN2C1=O
Result block: -0.367

----------
Listed below: composite z-score values for each entry.
test system: Inhibin beta A chain (activin A); assay: INHBA (activin A) binders on microarrays, primary screen, biochemical, small-molecule microarray, 635 nm fluorescence scan (AID 1107); conditions: small-molecule microarray binding, higher = more signal;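 note: mouse activin A protein probed at 4.33 µg/mL on printed slides; score merges bound-protein fluorescence near 667 nm with spot signal-to-noise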

1. CC(C)C[C@@H]1NC(=O)[C@H](CC(C)C)NC(=O)[C@@]23C(=O)N[C@@H](Cc4ccccc4)C2[C@H](C)[C@@]2(C)O[C@H]2C3/C=C/CC/C=C/CNC1=O (stereo not given in full) = 1.38
2. CO[C@H]1COC(=O)[C@H](C)NC(=O)CC=C[C@@H](C)[C@H](NS(=O)(=O)c2ccc(C)cc2)COC(=O)CC=C[C@@H]1C = 1.47
3. CC(C)[Si](OCC[C@H]1O[C@]2(C(=O)N(Cc3ccccc3)c3ccccc32)[C@@H](C)[C@@H]1[Si](C)(C)O)(C(C)C)C(C)C = 0.438

Query block: Using the record for CC/C=C/C(=O)N(C[C@@H]1CCCO1)[C@@H]1CC(C(=O)NCCO)=C[C@H](Oc2c(I)cc(CO)cc2OC)[C@H]1O , report its composite z-score.
Result block: 0.0756

Query block: Here is the next molecule: C#CCCCON=C1C[C@@H](O)[C@@H](O)[C@@H]2[C@@H]3C(=O)N(Cc4ccc5c(c4)OCO5)C(=O)[C@@H]3CC[C@H]12
Result block: -0.345

----------
Reported values of z-score for individual entries
assay: modulators of S6 phosphorylation in cells, primary screen, cell-based, A549, cytoblot, luminescence, serum-stimulated (AID 1158); settings: A549 phospho-S6 cytoblot, 5 h, higher = more signal;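 note: serum-stimulated A549 lung adenocarcinoma cells; signal is phosphorylated S6 detected by cytoblot immunostaining with HRP secondary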
Form rule: numeric answer, no unit written next to it.

Some compounds with known z-score results, for comparison:
1) CC(C)[C@H]1NC(=O)[C@@]23C(=O)N[C@@H](Cc4ccccc4)C2[C@H](C)[C@@]2(C)O[C@H]2C3/C=C/C/C=C\CNC(=O)[C@H](C)NC1=O (some centres undefined) = -0.221
2) C[C@H]1COC(=O)[C@H](Cc2ccccc2)NC(=O)[C@@H](C)COC(=O)[C@H](Cc2ccccc2)NC1=O = 1.58
3) COCCOC(=O)N1C(=O)[C@@]2(c3cc(C#CCNC(N)=O)ccc31)[C@H](c1ccc(OCCO)cc1)N1[C@H](c3ccccc3)[C@H](c3ccccc3)OC(=O)[C@H]1[C@@H]2C(=O)N1CCCCCCC1 = 1.01

Could you now look at the following compound, please?
Query block: So what's the measured z-score for this one? C=C(/C(=C/C[C@@H](OC(=O)c1ccncc1)c1ccc(CO)o1)c1cnc2ccccc2c1)C(C)C
Result block: -0.191
